assay: gradient 5% acetonitrile 3 min, to 50% in 2 min, to 85% in 15 min, held 3 min, 100 µL/min; conditions: column: Zorbax Extend-C18 2.1 x 50 mm; eluents: water / acetonitrile, 0.1% formic acid
VALUE_TYPE: RP-LC retention time (s)
Could you give me the number in s? Just the number is fine.

Endpoint output: RP-LC retention time of O=C(c1ccc(Br)cc1)N1CCC(n2c(-c3ccco3)nc3cccnc32)C1 (centres undefined) . Value?
827

Given the entry "O=C(CC1CCCC1)N1CCN(c2nnc3ccc(C(F)(F)F)cn23)CC1" , report its measured RP-LC retention time.
797

Which measured RP-LC retention time value corresponds to "O=C1CCN(Cc2ccc(F)cc2F)CCOCCN1" ?
561

Look up RP-LC retention time: Nc1ccccc1SC1CC(=O)N(c2ccccc2Cl)C1=O (centres undefined)
884

// RP-LC retention time lookup, key: "CSc1ccc(-c2noc(Cn3c(=O)n(-c4cccc(C)c4)c(=O)c4sccc43)n2)cc1"
1070

Need RP-LC retention time, item "O=C(Nc1cccc([N+](=O)[O-])c1)C(=O)Nc1ccc2c(c1)N(C(=O)C1CC1)CCC2"
883

What value of RP-LC retention time has been reported for the following compound? "Cc1cc(C)c(S(=O)(=O)Nc2ccc(Cn3cncn3)cc2)cc1C"
762

Recorded RP-LC retention time of "CC1CCN(S(=O)(=O)c2ccc(-c3nnc(C(=O)NCc4ccccc4Cl)o3)cc2)CC1" , please.
1110

What does the data say about its RP-LC retention time? Entry: "COc1ccc(S(=O)(=O)N2CCC(C(=O)NCCc3csc(-c4ccccc4)n3)CC2)cc1"
912

Which RP-LC retention time reading was recorded for the compound "CCn1c(CN(C)C(=O)Nc2ccc(Br)cc2F)nc2cc(C(=O)N(C)C)ccc21" ?
650

Given O=S(=O)(NCCN1CCOC(c2ccccc2)C1)c1ccc2c(c1)CCCC2 (centres undefined) , state its recorded RP-LC retention time.
632

// lookup RP-LC retention time for "CN(C(=O)c1nc(N2CCSCC2)c2cnn(C)c2n1)c1cccc(Cl)c1"
842

Quick one: RP-LC retention time of "Cc1ccc(C)c(NC(=O)Cc2csc3nc(-c4ccc(C)c(C)c4)cn23)c1" ?
896

Fill in: RP-LC retention time of "O=C(NCc1ccccc1Cl)c1coc(NC(=O)c2cnccn2)n1" is ___
643

Given "Cc1ccccc1C(=O)NCCCn1cccc1" , state its recorded RP-LC retention time.
762

Can you look up the measured RP-LC retention time of "CCN1CCC(N2CCC3(CC2)NCCc2c3[nH]c3ccc(OC)cc23)CC1" for me?
517

Which RP-LC retention time is reported for this compound? "CCOCC(=O)N1CC(c2nc(CCOC)no2)C1"
600

Recorded RP-LC retention time for "CC(=O)Nc1ccc(Br)cc1C(=O)C(=O)NCCc1c[nH]c2ccccc12" , please?
876

Give its RP-LC retention time value. Item: "COc1cc(-c2nc3ncccn3c2Nc2ccc(C(C)C)cc2)ccc1O"
711

For "CCn1cc(-c2nc(CC(=O)NCc3ccc(C)o3)cs2)c2cccnc21" , what is its reported RP-LC retention time?
912

Bench note: what RP-LC retention time did "Cc1nnc2n1CCN(C(=O)c1ccc(OC(F)(F)F)cc1)C2" show?
606

Entry "CCOC(=O)c1[nH]c(C)c(CCC(=O)NCCN2CCN(C)CC2)c1C" has what RP-LC retention time?
547

Name the reported RP-LC retention time value associated with the compound "CC(=O)Nc1ccc(C2(C(=O)NCc3ccc(Cl)cc3)CCC2)cc1"
785

Dear colleague, I am looking for the recorded RP-LC retention time of the following compound: "O=C(Cn1nc2c3cc(-c4ccc(F)cc4)nn3ccn2c1=O)Nc1ccc(F)cc1Cl"
959

I would be grateful if you could share the reported RP-LC retention time for "CC(C)(CO)NCc1ccc(-c2cccc(C(F)(F)F)c2)o1" .
660

Which RP-LC retention time is reported for this compound? "CCN1CCN(C(=O)c2ccc3ccnc(N4CCN(c5ccc(Cl)cc5)CC4)c3c2)CC1"
618

What RP-LC retention time value was documented for this compound, "COC(=O)c1ccc2c(=O)n(-c3ccc4c(c3)OCO4)c(N3CCCCC3)nc2c1" ?
1080

Requested field: RP-LC retention time. Item: O=C(NCC1CCCO1)C1c2ccccc2C(=O)N1Cc1ccc2c(c1)OCO2 (centres undefined)
728

Request the reported RP-LC retention time associated with "Cc1ccc(N2CCN(C(=O)c3cc(C)n4nccc4n3)CC2)cc1"
818

For the compound shown here, Cc1ccc(S(=O)(=O)N2CC(=O)N(c3ccccc3F)C(C)(C(=O)NC3CCCC3)C2)cc1 (centres undefined) , give the reported RP-LC retention time.
959

Any idea what its RP-LC retention time is? The compound is "Cc1cc(SCC(=O)Nc2ccc(Cl)cc2C(F)(F)F)nc(-c2cccnc2)n1"
785

State the recorded RP-LC retention time for this entry: CC1Cc2ccccc2N1C(=O)CCn1c(=O)sc2ccccc21 (centres undefined)
923

Please give the measured RP-LC retention time for this compound: CSc1ccc(CCNC(=O)C2CCCN(c3ncnc4c3nc3n4CCCCC3)C2)cc1 (centres undefined)
820

State the recorded RP-LC retention time for this entry: CCCCNC(=O)c1sc2ncn(CC(=O)N3CC(C)CC(C)C3)c(=O)c2c1C (centres undefined)
890

May I ask what RP-LC retention time has been recorded for "O=C(NCCCN1CCCC1=O)c1nc2ccccn2c1-c1ccc(Cl)cc1" ?
690

Given the compound "COc1ccc(-c2cn3c(CC(=O)Nc4ccc(C)cn4)csc3n2)cc1OC" , what is its reported RP-LC retention time?
653

Need RP-LC retention time of COc1ccc(N2CC(c3nc(-c4ccc5c(c4)OCO5)no3)CC2=O)cc1 (centres undefined) , thanks.
891

Entry "Nc1cc(C(F)(F)F)c(-c2cc(N3CCOCC3)nc(N3CCOCC3)n2)cn1" has what RP-LC retention time?
650

Query (compound): "O=C(CCNc1c(-c2cccc(F)c2)nc2cnccn12)NCc1ccc2c(c1)OCO2" ; field requested: RP-LC retention time
712
